Test system: Rattus norvegicus
Assay: Immunosuppression activity in rat assessed as reduction of adjuvant-induced polyarthritis administered po twice daily on days 0 to 14 measured on day 21
inhibition (INH) below 7% gives false (0); inhibition (INH) at or above it gives true (1).

Cl.Nc1ccn([C@@H]2O[C@H](COC(=O)c3cccnc3)[C@@H](O)[C@@H]2O)c(=O)n1 ... false (0)
Cl.Nc1ccn([C@@H]2O[C@H](COC(=O)C34CC5CC(CC(C5)C3)C4)[C@@H](O)[C@@H]2O)c(=O)n1 ... true (1)
Cl.Nc1ccn([C@@H]2O[C@H](COC(=O)C3CC4CCN3CC4)[C@@H](O)[C@@H]2O)c(=O)n1 (stereo partly drawn) ... false (0)

Here is another molecule to look at.
Quick check: does CC(C)(C)OC(=O)NCC(=O)N[C@@H](CCCNC(=N)N)C(=O)Nc1ccn([C@@H]2O[C@H](COC(=O)C34CC5CC(CC(C5)C3)C4)[C@@H](O)[C@@H]2O)c(=O)n1.Cl have inhibition (INH) greater than or equal to 7%? true (1)

* * *

Test system: Rattus norvegicus
Test: Immunosuppression activity in rat assessed as reduction of adjuvant-induced polyarthritis administered po twice daily on days 0 to 14 measured on day 21
readout_label: inhibition (INH) (%)
API: value field is a number in %; no unit string.

In the examples that follow, each entry is paired with its recorded inhibition (INH).
CC(C)(C)OC(=O)NCC(=O)N[C@@H](CCCNC(=N)N)C(=O)Nc1ccn([C@@H]2O[C@H](COC(=O)c3ccccc3)[C@@H](O)[C@@H]2O)c(=O)n1.Cl ... 35
CCCCCCCCCCCCCCCC(=O)OC[C@H]1O[C@@H](n2ccc(N)nc2=O)[C@@H](O)[C@@H]1O.Cl ... 6
Nc1ccn([C@@H]2O[C@H](CO)[C@@H](O)[C@@H]2O)c(=O)n1 [CYTARABINE] ... 7

// switching to the query compound
Looking up Cl.Nc1ccn([C@@H]2O[C@H](COC(=O)c3ccccc3)[C@@H](O)[C@@H]2O)c(=O)n1 , I see its inhibition (INH) listed as 20

Numbers sourced from ChEMBL document CHEMBL3272176.
